Measured DC50, listed per entry.
biological target: UniProt Q14004; assay: Western blot degradation of CDK13 (Example 2); type: cell-based; parameters: degradation of CDK12/13 protein in leukemia cells KASUMI-1, MV4-11, and Jurkat; endogenous in cells; conditions: DC50 classes; cell line not given; read-out: CDK13 degradation Activity
Sequence (Q14004 whole entry): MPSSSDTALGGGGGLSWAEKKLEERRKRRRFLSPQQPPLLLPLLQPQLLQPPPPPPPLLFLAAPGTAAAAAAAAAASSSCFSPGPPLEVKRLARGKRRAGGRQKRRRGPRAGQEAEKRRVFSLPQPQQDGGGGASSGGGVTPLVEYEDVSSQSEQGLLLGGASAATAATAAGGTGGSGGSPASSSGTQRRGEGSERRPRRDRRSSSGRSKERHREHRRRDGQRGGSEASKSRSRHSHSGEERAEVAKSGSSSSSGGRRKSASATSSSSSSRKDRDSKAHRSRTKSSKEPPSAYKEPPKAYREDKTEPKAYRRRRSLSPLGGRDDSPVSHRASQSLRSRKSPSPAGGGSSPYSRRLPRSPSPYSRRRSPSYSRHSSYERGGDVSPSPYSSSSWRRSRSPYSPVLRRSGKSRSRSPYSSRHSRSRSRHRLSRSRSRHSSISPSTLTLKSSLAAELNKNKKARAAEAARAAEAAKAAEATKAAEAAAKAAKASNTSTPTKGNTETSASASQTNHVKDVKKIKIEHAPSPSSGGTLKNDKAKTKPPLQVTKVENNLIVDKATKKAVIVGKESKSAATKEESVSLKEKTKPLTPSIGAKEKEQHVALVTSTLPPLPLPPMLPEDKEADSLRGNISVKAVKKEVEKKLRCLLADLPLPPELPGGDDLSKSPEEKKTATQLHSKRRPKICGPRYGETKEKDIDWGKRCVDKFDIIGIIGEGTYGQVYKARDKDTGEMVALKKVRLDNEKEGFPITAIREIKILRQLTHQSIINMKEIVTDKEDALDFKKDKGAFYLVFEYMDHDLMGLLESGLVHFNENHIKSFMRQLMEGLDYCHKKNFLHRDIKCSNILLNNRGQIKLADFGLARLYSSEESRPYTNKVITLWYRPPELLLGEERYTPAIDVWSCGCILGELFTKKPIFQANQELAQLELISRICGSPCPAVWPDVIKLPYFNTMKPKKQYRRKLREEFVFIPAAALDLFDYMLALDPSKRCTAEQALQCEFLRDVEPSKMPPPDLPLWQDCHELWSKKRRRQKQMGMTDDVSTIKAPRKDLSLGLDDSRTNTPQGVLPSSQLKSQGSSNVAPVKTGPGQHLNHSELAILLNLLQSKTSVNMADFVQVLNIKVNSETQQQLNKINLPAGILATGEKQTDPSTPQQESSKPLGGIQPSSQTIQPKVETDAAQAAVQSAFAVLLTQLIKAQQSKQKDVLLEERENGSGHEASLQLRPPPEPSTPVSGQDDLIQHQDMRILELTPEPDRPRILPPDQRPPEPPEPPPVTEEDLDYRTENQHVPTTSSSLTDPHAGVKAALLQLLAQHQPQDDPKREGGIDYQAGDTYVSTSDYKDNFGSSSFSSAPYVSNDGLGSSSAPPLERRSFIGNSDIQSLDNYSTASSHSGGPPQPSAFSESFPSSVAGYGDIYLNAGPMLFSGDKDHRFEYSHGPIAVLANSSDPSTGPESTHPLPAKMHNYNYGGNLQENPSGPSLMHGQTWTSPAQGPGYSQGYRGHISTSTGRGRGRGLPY
Sequence (O75909 whole entry partner): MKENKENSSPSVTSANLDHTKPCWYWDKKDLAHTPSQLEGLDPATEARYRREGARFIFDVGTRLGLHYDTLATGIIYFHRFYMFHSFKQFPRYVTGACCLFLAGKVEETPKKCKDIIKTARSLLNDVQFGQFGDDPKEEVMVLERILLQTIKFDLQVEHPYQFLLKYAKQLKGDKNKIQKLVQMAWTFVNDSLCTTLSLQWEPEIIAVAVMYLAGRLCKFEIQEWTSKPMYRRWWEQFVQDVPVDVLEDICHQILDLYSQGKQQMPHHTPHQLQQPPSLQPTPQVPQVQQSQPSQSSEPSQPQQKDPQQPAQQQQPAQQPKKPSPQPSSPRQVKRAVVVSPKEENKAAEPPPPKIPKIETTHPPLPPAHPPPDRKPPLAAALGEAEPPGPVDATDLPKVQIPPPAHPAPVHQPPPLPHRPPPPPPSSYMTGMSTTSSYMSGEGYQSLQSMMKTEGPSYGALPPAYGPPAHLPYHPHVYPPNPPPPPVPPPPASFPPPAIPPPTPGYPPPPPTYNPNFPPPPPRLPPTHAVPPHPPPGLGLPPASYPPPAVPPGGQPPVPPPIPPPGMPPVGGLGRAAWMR

Known DC50 results, listed for orientation:
- compound: "N#Cc1ccc(N[C@H]2CC[C@H](N(C(=O)NCc3ccccc3)c3ccc(N4CCN(CCOCCOCCNc5cccc6c5C(=O)N(C5CCC(=O)NC5=O)C6=O)CC4)cc3)CC2)nc1 (stereo partly shown) [Formula 39]"
  DC50: "3000 to 10000 nM"
- compound: "Cc1ncsc1-c1ccc([C@H](C)NC(=O)[C@@H]2C[C@@H](O)CN2C(=O)[C@@H](NC(=O)CN2CCN(c3ccc(-c4ccc(N(C(=O)NCc5ccccc5)[C@H]5CC[C@H](Nc6ccc(C#N)cn6)CC5)cc4)cn3)CC2)C(C)(C)C)cc1 [Formula 77]"
  DC50: "< 100 nM"
- compound: "Cc1ncsc1-c1ccc([C@H](C)NC(=O)[C@@H]2C[C@@H](O)CN2C(=O)[C@@H](NC(=O)COCCOc2ccc(-c3ccc4c(c3)CN(Cc3ccccc3)C(=O)N4[C@H]3CC[C@H](Nc4ccc(C#N)cn4)CC3)cn2)C(C)(C)C)cc1 [Formula 62]"
  DC50: "500 to 1000 nM"

Now for a further compound.
input: Look up and report measured DC50 for this entry: Cc1ncsc1-c1ccc([C@H](C)NC(=O)[C@@H]2C[C@@H](O)CN2C(=O)[C@@H](NC(=O)CN2CCN(c3ccc(-c4ccc5c(c4)CCN(Cc4ccccc4)C(=O)N5[C@H]4CC[C@H](Nc5ccc(C#N)cn5)CC4)cn3)CC2)C(C)(C)C)cc1 [Formula 69]
output: 100 to 500 nM
